Source of measurements: patent US10759751B2

target: human muscarinic M4 receptor (Homo sapiens); construct: expressed in transfected cells; experiment: Alphascreen Surefire phospho-ERK1/2 functional assay, M4; format: cell-based; details: CHO, read-out: M4 % Emax cf. ACh, CHO cells stably expressing human M4; Emax relative to ACh
Sequence (P08173 whole entry): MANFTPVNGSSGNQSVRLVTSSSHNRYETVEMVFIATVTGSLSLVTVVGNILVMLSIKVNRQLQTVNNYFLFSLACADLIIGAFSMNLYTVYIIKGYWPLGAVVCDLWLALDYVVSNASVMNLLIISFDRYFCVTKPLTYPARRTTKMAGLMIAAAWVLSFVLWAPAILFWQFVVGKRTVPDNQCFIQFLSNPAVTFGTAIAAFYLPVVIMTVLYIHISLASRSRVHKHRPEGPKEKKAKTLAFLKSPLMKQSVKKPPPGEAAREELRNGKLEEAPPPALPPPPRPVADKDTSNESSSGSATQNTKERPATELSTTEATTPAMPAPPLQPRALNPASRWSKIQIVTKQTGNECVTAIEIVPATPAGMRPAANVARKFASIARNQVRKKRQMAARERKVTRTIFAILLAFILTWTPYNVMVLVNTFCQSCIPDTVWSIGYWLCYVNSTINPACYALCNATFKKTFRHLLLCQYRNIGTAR
metric name: Emax (%)

Reference set (2 entries):
>>> measured_number("CCOC(=O)N[C@@H]1CCN(C2CCC3(CC2)C(=O)Nc2ccccc23)C1 (single isomer, unassigned) [2-2 isomer 1]")
84
>>> measured_number("COC(=O)N1CCCN(C2CCC(C#N)(c3ccccc3)CC2)CC1 (mixture of isomers) [3-28 mixture of isomers]")
91

a = CCOC(=O)N1CCCN(C2CCC(C#N)(c3ccc(F)cc3)CC2)CC1 (mixture of isomers) [3-3 mixture of isomers]
b = CCOC(=O)N[C@H]1CCN(C2CCC3(CC2)C(=O)Nc2cc(C)ccc23)C1 (single isomer, unassigned) [2-4 isomer 1]
Please choose the item with the lower Emax value from this pair: a and b Mark your selection by writing its label.
b
